# Assay System: HLA-B*58:01
# Procedure Details: IEDB peptide-MHC binding, purified MHC/direct/fluorescence; filed as Kd, often an IC50 or EC50 that approximates it; bounds were set here for any values at or beyond the usual limits of such assays
# Condition Summary: source organism: Influenza A virus (A/equine/New York/1/1999(H3N8))
Value Kind: Kd

Lookup: What value of Kd on HLA-B*58:01 does ELVRKTRFL have?
Found: ≥ 20 µM

###

# Assay System: HLA-B*15:42
# Procedure Details: IEDB peptide-MHC binding, purified MHC/competitive/fluorescence; filed as Kd, often an IC50 or EC50 that approximates it; bounds were set here for any values at or beyond the usual limits of such assays
# Condition Summary: source organism: Giardia lamblia ATCC 50803
pKd: −log10 of the molar value.
Value Kind: pKd

Lookup: // lookup pKd for YTFFFTQYF
Found: ≤ 5.30
